# Subject of test: GPR139 (GoA activation) (Homo sapiens, UniProt Q6DWJ6)
# Protocol text: BRET G protein activation (dissociation) assay, GoA, HEK293A
# Protocol conditions: Supplementary Table 6
# Protocol: Primary screening and pharmacological characterization of compounds were performed using a CHO-K1 cell line that stably expresses human GPR139 (GPR139-CHOk1). The GPR139-CHOk1 cell line was kindly provided by H. Lundbeck A/S, Denmark[24]. […]
Quantity: EC50 (nM)

[
  {
    "Compound": "C[C@@H](NC(=O)CNC(=O)c1cccc(Cl)c1)c1ccccc1 [JNJ(R), reference compound]",
    "Subject of test": "GPR139 (GoA activation) (Homo sapiens, UniProt Q6DWJ6)",
    "Quantity": "EC50",
    "Unit annotation": "nM",
    "Reported value": 5010
  },
  {
    "Compound": "Cc1cscc1-c1nc(CC(=O)N[C@@H](C)c2ccccc2)no1 [1.1(S)]",
    "Subject of test": "GPR139 (GoA activation) (Homo sapiens, UniProt Q6DWJ6)",
    "Quantity": "EC50",
    "Unit annotation": "nM",
    "Reported value": 63.1
  },
  {
    "Compound": "CC(NC(=O)CNC(=O)c1cccc(Cl)c1)c1ccccc1 (stereo not shown) [JNJ-63533054, reference compound]",
    "Subject of test": "GPR139 (GoA activation) (Homo sapiens, UniProt Q6DWJ6)",
    "Quantity": "EC50",
    "Unit annotation": "nM",
    "Reported value": 79.4
  },
  {
    "Compound": "Cc1cscc1-c1nc(CC(=O)N[C@H](C)c2ccccc2)no1 [1.1(R)]",
    "Subject of test": "GPR139 (GoA activation) (Homo sapiens, UniProt Q6DWJ6)",
    "Quantity": "EC50",
    "Unit annotation": "nM",
    "Reported value": 794
  }
]

----------
# Subject of test: GPR139 (Homo sapiens, UniProt Q6DWJ6)
# Sequence (Q6DWJ6 1-353): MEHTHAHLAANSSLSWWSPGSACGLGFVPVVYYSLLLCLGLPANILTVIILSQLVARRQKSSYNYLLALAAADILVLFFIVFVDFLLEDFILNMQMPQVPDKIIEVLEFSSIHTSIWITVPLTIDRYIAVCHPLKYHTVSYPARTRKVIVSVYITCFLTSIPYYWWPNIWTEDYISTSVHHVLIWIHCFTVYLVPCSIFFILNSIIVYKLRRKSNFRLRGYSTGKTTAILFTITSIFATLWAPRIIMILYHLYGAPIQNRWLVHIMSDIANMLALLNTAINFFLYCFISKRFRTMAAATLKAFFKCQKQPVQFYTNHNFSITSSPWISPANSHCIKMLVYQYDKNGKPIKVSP
# Protocol text: Ca2+ mobilization assay, HEK293A cells transiently expressing GPR139
# Assay type: cell-based
# Protocol conditions: HEK293-A; HEK293A transient; normalized to JNJ-63533054 (JNJ(S))

[
  {
    "Compound": "CC(NC(=O)CNC(=O)c1cccc(Cl)c1)c1ccccc1 (stereo not shown) [JNJ-63533054, reference compound]",
    "Emax": "133%"
  },
  {
    "Compound": "Cc1cscc1-c1nc(CC(=O)N[C@H](C)c2ccccc2)no1 [1.1(R)]",
    "Emax": "139%"
  },
  {
    "Compound": "Cc1cscc1-c1nc(CC(=O)N[C@@H](C)c2ccccc2)no1 [1.1(S)]",
    "Emax": "146%"
  },
  {
    "Compound": "C[C@@H](NC(=O)CNC(=O)c1cccc(Cl)c1)c1ccccc1 [JNJ(R), reference compound]",
    "Emax": "101%"
  }
]

----------
EC50 overview
# Subject of test: GPR139 (Homo sapiens)
# Protocol text: Ca2+ mobilization assay, HEK293A cells transiently expressing GPR139
# Type: cell-based
# Protocol conditions: Supplementary Table 6; HEK293A transient; read-out: pEC50 Ca2+ (converted)

[
  {
    "Molecule": "C[C@@H](NC(=O)CNC(=O)c1cccc(Cl)c1)c1ccccc1 [JNJ(R), reference compound]",
    "Unit annotation": "nM",
    "EC50": 1260
  },
  {
    "Molecule": "Cc1cscc1-c1nc(CC(=O)N[C@@H](C)c2ccccc2)no1 [1.1(S)]",
    "Unit annotation": "nM",
    "EC50": 12.6
  },
  {
    "Molecule": "Cc1cscc1-c1nc(CC(=O)N[C@H](C)c2ccccc2)no1 [1.1(R)]",
    "Unit annotation": "nM",
    "EC50": 398
  },
  {
    "Molecule": "CC(NC(=O)CNC(=O)c1cccc(Cl)c1)c1ccccc1 (stereo not shown) [JNJ-63533054, reference compound]",
    "Unit annotation": "nM",
    "EC50": 15.8
  }
]

----------
# Protocol text: Bioanalysis of compounds in mouse plasma and brain
# Type: in vivo
# Protocol conditions: both sexes, C57BL/6 J, brain, intraperitoneal, one hour after 30 mg/kg i.p., read-out: total brain tissue concentration (Cbrain)

[
  {
    "Molecule": "CC(NC(=O)CNC(=O)c1cccc(Cl)c1)c1ccccc1 (stereo not shown) [JNJ-63533054, reference compound]",
    "Unit annotation": "µM",
    "concentration at 1 h": 24.8
  }
]

----------
# Protocol text: Bioanalysis of compounds in mouse plasma and brain
# Format: in vivo
# Protocol conditions: both sexes, C57BL/6 J, brain/plasma, ip, single time point, one hour after 30 mg/kg i.p., read-out: total brain-to-plasma concentration ratio (Kp,brain)

[
  {
    "Molecule": "CC(NC(=O)CNC(=O)c1cccc(Cl)c1)c1ccccc1 (stereo not shown) [JNJ-63533054, reference compound]",
    "Kp at 1 h": 1.21
  }
]

----------
# Subject of test: GPR139 (Homo sapiens, UniProt Q6DWJ6)
# Protocol text: Ca2+ mobilization assay, agonist mode, stable GPR139-CHOk1 cell line
# Format: cell-based
# Protocol conditions: Supplementary Table 2; normalized to Lundbeck Cmp 1a; mean ± SEM; read-out: Emax (%) Ca2+
Quantity: Emax (%)

[
  {
    "Molecule": "COc1cc(OC)cc(C(=O)NNC(=O)Nc2cccc3ccccc23)c1 [Lundbeck Cmp 1a, reference compound]",
    "Unit annotation": "%",
    "Reported value": 108
  },
  {
    "Molecule": "Cc1nc2cc(-c3nc(CC(=O)NC(C)c4ccccc4)no3)ccc2o1 (stereo not drawn) [Compound 1.22]",
    "Unit annotation": "%",
    "Reported value": 99
  },
  {
    "Molecule": "Cc1nc(-c2nc(CC(=O)NC(C)c3ccccc3)no2)co1 (stereo not drawn) [Compound 1.29]",
    "Unit annotation": "%",
    "Reported value": 90
  },
  {
    "Molecule": "CC(C)c1ccc(-c2nc(CC(=O)NC(C)c3ccccc3)no2)s1 (stereo not drawn) [Compound 1.41]",
    "Unit annotation": "%",
    "Reported value": 67
  },
  {
    "Molecule": "Cc1ccc(-c2nc(CC(=O)NC(C)c3ccccc3)no2)nc1C (stereo not drawn) [Compound 1.31]",
    "Unit annotation": "%",
    "Reported value": 86
  },
  {
    "Molecule": "CCc1ccc(-c2nc(CC(=O)NC(C)c3ccccc3)no2)s1 (stereo not drawn) [Compound 1.12]",
    "Unit annotation": "%",
    "Reported value": 93
  },
  {
    "Molecule": "Cc1c(-c2nc(CC(=O)NC(C)c3ccccc3)no2)sc2nccn12 (stereo not drawn) [Compound 1.21]",
    "Unit annotation": "%",
    "Reported value": 88
  },
  {
    "Molecule": "Cc1cc(-c2nc(CC(=O)NC(C)c3ccccc3)no2)cs1 (stereo not drawn) [Compound 1.4]",
    "Unit annotation": "%",
    "Reported value": 114
  },
  {
    "Molecule": "Cc1ccc(-c2nc(CC(=O)NC(C)c3ccccc3)no2)cc1 (stereo not drawn) [Compound 1.14]",
    "Unit annotation": "%",
    "Reported value": 89
  }
]

----------
Overview of reported Emax across a group of compounds:
# Subject of test: GPR139 (GoA activation) (Homo sapiens)
# Construct: expressed in transfected cells; host or cells: HEK293A (transient, Lipofectamine 2000)
# Sequence (Q6DWJ6 1-353): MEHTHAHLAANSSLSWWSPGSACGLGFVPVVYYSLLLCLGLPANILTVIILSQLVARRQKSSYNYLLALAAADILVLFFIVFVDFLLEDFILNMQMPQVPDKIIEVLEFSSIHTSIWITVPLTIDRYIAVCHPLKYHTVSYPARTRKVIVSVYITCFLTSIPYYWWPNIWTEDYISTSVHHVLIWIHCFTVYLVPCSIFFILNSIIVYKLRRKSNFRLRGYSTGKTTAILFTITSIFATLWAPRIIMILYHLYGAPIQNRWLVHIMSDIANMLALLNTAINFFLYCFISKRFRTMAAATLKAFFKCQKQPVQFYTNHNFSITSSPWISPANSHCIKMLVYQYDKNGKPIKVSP
# Protocol text: BRET G protein activation (dissociation) assay, GoA, HEK293A
# Format: cell-based
# Protocol conditions: HEK293-A; normalized to JNJ-63533054 (JNJ(S))
# Procedure: Primary screening and pharmacological characterization of compounds were performed using a CHO-K1 cell line that stably expresses human GPR139 (GPR139-CHOk1). The GPR139-CHOk1 cell line was kindly provided by H. Lundbeck A/S, Denmark[24]. […]

[
  {
    "Compound": "Cc1cscc1-c1nc(CC(=O)N[C@@H](C)c2ccccc2)no1 [1.1(S)]",
    "Emax [%]": 96
  },
  {
    "Compound": "C[C@@H](NC(=O)CNC(=O)c1cccc(Cl)c1)c1ccccc1 [JNJ(R), reference compound]",
    "Emax [%]": 79
  },
  {
    "Compound": "CC(NC(=O)CNC(=O)c1cccc(Cl)c1)c1ccccc1 (stereo not shown) [JNJ-63533054, reference compound]",
    "Emax [%]": 114
  },
  {
    "Compound": "Cc1cscc1-c1nc(CC(=O)N[C@H](C)c2ccccc2)no1 [1.1(R)]",
    "Emax [%]": 75
  }
]
